- TESTED ON: BRG-1 (Homo sapiens, UniProt P51532)
- Sequence (P51532 whole entry): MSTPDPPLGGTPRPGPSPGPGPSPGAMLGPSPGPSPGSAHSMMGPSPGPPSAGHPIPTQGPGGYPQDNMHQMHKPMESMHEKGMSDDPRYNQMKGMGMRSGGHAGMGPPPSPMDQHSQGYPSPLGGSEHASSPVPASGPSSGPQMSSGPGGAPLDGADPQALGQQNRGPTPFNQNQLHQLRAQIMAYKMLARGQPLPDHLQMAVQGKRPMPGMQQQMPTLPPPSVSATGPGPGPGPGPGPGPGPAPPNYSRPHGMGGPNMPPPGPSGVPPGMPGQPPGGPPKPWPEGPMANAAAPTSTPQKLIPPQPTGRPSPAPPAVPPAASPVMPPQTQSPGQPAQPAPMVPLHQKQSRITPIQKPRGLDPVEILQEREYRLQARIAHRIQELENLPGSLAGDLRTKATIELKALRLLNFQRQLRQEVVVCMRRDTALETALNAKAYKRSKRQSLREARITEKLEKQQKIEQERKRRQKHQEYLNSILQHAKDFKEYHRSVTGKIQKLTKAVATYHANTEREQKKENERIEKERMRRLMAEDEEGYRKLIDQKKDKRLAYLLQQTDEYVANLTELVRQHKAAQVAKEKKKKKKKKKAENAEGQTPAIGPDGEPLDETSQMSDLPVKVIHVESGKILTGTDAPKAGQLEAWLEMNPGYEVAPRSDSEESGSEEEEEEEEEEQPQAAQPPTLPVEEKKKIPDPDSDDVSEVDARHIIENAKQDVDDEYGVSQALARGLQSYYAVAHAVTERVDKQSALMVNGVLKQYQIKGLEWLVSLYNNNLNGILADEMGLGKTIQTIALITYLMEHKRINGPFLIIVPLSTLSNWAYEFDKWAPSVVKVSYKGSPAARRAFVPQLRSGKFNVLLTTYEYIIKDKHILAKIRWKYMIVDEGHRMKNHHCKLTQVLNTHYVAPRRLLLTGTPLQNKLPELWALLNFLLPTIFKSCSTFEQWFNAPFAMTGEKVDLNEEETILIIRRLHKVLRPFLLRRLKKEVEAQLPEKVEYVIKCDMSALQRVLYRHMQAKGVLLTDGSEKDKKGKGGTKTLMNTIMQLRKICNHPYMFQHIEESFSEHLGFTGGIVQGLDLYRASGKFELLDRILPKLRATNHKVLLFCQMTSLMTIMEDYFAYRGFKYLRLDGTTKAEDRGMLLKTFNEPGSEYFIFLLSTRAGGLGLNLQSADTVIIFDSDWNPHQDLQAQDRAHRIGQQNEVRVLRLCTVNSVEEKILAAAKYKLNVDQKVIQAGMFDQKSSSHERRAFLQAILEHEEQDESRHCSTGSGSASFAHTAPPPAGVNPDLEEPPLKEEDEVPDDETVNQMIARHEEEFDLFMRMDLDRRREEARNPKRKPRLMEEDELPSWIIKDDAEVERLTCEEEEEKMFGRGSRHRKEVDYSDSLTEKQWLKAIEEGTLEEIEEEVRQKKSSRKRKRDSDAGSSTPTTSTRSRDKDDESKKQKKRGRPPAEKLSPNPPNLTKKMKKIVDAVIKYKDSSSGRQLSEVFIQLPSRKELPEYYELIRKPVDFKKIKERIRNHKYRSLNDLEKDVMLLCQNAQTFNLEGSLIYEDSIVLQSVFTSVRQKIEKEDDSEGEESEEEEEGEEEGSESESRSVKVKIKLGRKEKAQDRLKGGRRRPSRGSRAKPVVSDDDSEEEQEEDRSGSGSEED
- METHOD DESCRIPTION: ATPase catalytic activity assay (ADP-Glo), BRG-1
pIC50: −log10 of the molar value.
// reported pIC50 for each item listed

Consider the following illustrative entries.
{"columns": ["COMPOUND", "TESTED ON", "DATA VALUE"],
 "data": [
  ["C[C@@]1(C#N)COCc2ccc(C(=O)NCc3cc4nc(-c5ccc6ccc(=O)n(C7CC7)c6n5)ccc4cn3)cc21 [Compound 165]", "BRG-1 (Homo sapiens, UniProt P51532)", "6.30 to 7.00"],
  ["C[C@@]1(CO)COCc2ccc(C(=O)NCc3cc4nc(-c5ccccc5)sc4cn3)cc21 [Compound 115]", "BRG-1 (Homo sapiens, UniProt P51532)", "< 6.00"],
  ["C[C@@]1(C#N)COCc2ccc(C(=O)NCc3cc4nc(-c5cccnc5)ccc4cn3)cc21 [Compound 114]", "BRG-1 (Homo sapiens, UniProt P51532)", "< 6.00"],
  ["COc1cncc(-c2ccc3cnc(CNC(=O)c4ccc5c(c4)[C@](C)(C#N)COC5)cc3n2)n1 [Compound 423]", "BRG-1 (Homo sapiens, UniProt P51532)", "6.30 to 7.00"],
  ["COc1nn(C2COC2)cc1-c1ccc2cnc(CNC(=O)c3ccc4c(c3)[C@](C)(C#N)COC4)cc2n1 [Compound 236]", "BRG-1 (Homo sapiens, UniProt P51532)", "6.30 to 7.00"]
]}

GET /value?item= COC1(c2ccccc2)CCN(c2ccnc(CNC(=O)c3ccc4c(c3)[C@](C)(C#N)COC4)c2)C1 (stereo partly shown) [Compound 58] &field=pIC50 returns 6.00 to 6.30

In plain terms, C[C@@]1(C#N)COCc2ccc(C(=O)NCc3cc4nc(-c5ccnc(N6CCOCC6)n5)ccc4cn3)cc21 [Compound 416] has a documented pIC50 of 6.30 to 7.00

* * *

Reported IC50 is given for each of the following molecules.
- TESTED ON: BRG-1 (Homo sapiens, UniProt P51532)
- METHOD DESCRIPTION: ATPase catalytic activity assay (ADP-Glo), BRG-1

These recorded examples may help you get a feel for the data.
{"columns": ["MOLECULE", "IC50"],
 "data": [
  ["C[C@@]1(C#N)COCc2ccc(C(=O)NCc3cc4nc(N5CCCN(C6CC6)C5=O)ccc4cn3)cc21", "> 1000 nM"],
  ["COc1nn(C)cc1-c1ccc2cnc(CNC(=O)c3cc(F)c4c(c3)[C@](C)(F)COC4)cc2n1", "500 to 1000 nM"],
  ["O=C(NCc1cc2nc(-c3cncc(C4CC4)n3)ccc2cn1)c1cc(F)c2c(c1)[C@](F)(C(F)F)COC2", "100 to 500 nM"]
]}

Kindly note the recorded IC50 for COC(=O)N1CCC(C#Cc2ccnc(CNC(=O)c3ccc4c(c3)[C@](C)(C#N)COC4)c2)C1 (some centres unmarked) , which is > 1000 nM

Entry under test: `Cn1ccc(-c2ccc3cnc(CNC(=O)c4ccc5c(c4)[C@](C)(C#N)COC5)cc3n2)n1` . Its IC50 was > 1000 nM

GET /value?item= `COC(=O)c1cccc(C#Cc2ccnc(CNC(=O)c3ccc4c(c3)[C@](C)(C#N)CO4)c2)c1` &field=IC50 returns > 1000 nM

* * *

- TESTED ON: BRG-1 (Homo sapiens, UniProt P51532)
- METHOD DESCRIPTION: ATPase catalytic activity assay (ADP-Glo), BRG-1
- TEST SETTINGS: 1 h, read-out: BRG1 Max % Inhibition, ADP-Glo, 30 nM BRG-1, 400 μM ATP
PARAMETER: Emax (%)

{"columns": ["COMPOUND", "DATA VALUE"],
 "data": [
  ["COC(=O)N1CCC=C(c2ccc3cnc(CNC(=O)c4ccc5c(c4)[C@](C)(F)COC5)cc3n2)C1 [Compound 345]", 25],
  ["C[C@@]1(C#N)COCc2ccc(C(=O)NCc3cc([C@@H]4C[C@H]4c4ccccc4)ccn3)cc21 [Compound 8]", 9]
]}

[A] Cc1cc(-c2ccc3cnc(CNC(=O)c4ccc5c(c4)[C@](C)(C#N)COC5)cc3n2)n(C)n1 [Compound 501]
[B] C[C@@]1(C#N)COCc2ccc(C(=O)NCc3cc4cc(-c5cncc(N6CCC6)n5)ccc4cn3)cc21 [Compound 371]
Incoming: Response body: label of entry with the larger Emax; valid values A , B . Your answer should be the label attached to the chosen record.
Outgoing: B
(B: 97%, A: 47%)

* * *

- TESTED ON: BRM (Homo sapiens)
- METHOD DESCRIPTION: ATPase catalytic activity assay (ADP-Glo), BRM
- TEST SETTINGS: 30 nM BRM, 400 μM ATP
PARAMETER: BRM Max % Inhibition (%)

{"columns": ["COMPOUND", "DATA VALUE"],
 "data": [
  ["CN(C)C(=O)c1cccc(-c2ccc3cnc(CNC(=O)c4ccc5c(c4)[C@](C)(C#N)COC5)cc3n2)c1 [Compound 490]", 93],
  ["C[C@@]1(C#N)COCc2ccc(C(=O)NCc3cc4nc(-c5ccnc(C6CC6)n5)ccc4cn3)cc21 [Compound 417]", 97],
  ["C[C@@]1(C#N)COCc2ccc(C(=O)NCc3cc4cc(-c5cncc(N6CCC6)n5)ccc4cn3)cc21 [Compound 371]", 104],
  ["C[C@@]1(F)COCc2ccc(C(=O)NCc3cc4nc(-c5ccnc(N6CC[C@@H]7COC[C@H]7C6)n5)ccc4cn3)cc21 [Compound 308]", 99],
  ["COc1nn(C(F)F)cc1-c1ccc2cnc(CNC(=O)c3cnc4c(c3)[C@](C)(F)COC4)cc2n1 [Compound 192]", 94],
  ["CNC(=O)c1cc(-c2ccc3cnc(CNC(=O)c4ccc5c(c4)[C@](C)(C#N)COC5)cc3n2)ccn1 [Compound 450]", 96],
  ["C[C@@]1(C#N)COCc2ccc(C(=O)NCc3cc4nc(N5CCCN(C6CC6)C5=O)ccc4cn3)cc21 [Compound 315]", 81],
  ["C[C@@]1(C#N)COCc2ccc(C(=O)NCc3cc(/C=C(\\F)c4ccccc4)ccn3)cc21 [Compound 29]", 98]
]}

* * *

- TESTED ON: BRM (Homo sapiens, UniProt P51531)
- Sequence (P51531 whole entry): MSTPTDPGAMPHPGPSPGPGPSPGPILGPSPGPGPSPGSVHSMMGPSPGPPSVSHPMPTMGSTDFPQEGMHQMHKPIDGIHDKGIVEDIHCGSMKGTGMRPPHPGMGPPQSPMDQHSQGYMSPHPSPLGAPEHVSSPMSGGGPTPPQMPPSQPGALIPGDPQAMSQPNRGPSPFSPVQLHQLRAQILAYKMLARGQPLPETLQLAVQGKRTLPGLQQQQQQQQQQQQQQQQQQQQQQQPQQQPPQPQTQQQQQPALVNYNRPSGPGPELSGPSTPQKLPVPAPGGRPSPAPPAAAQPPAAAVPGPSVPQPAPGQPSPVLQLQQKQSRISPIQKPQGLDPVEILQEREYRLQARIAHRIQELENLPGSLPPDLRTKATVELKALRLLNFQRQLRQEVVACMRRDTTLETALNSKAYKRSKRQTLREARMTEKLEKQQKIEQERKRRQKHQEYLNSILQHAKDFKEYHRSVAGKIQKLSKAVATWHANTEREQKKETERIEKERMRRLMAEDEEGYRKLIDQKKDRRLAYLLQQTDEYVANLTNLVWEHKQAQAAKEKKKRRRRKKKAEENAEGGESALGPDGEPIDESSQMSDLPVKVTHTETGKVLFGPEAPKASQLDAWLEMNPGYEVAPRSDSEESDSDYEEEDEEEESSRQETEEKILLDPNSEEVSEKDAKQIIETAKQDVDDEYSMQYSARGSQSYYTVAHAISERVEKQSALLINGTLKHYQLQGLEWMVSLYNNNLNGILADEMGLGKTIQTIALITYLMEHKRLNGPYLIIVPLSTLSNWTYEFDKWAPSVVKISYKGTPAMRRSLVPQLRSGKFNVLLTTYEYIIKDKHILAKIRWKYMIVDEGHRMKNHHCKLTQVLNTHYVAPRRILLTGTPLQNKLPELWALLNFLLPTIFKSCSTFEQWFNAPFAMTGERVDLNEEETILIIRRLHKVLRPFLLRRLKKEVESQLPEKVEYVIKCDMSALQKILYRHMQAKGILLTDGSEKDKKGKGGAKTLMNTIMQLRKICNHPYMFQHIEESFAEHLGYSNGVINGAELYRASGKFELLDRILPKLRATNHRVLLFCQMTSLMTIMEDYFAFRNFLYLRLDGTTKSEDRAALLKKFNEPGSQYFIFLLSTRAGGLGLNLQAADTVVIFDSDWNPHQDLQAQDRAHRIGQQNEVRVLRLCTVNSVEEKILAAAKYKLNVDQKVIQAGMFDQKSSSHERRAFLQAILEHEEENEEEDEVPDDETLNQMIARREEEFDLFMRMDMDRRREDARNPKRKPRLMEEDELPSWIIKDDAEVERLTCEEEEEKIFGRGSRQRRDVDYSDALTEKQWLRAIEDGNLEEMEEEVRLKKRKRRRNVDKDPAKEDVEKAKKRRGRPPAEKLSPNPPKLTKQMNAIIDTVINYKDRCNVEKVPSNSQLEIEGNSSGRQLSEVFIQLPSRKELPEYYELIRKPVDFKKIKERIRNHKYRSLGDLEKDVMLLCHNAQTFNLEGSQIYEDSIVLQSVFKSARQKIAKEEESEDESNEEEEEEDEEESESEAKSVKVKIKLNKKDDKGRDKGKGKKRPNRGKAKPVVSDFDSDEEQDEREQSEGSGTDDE
- METHOD DESCRIPTION: ATPase catalytic activity assay (ADP-Glo), BRM
- TEST SETTINGS: 30 nM BRM, 400 μM ATP
PARAMETER: BRM Max % Inhibition (%)

Known BRM Max % Inhibition results, listed for orientation:
{"columns": ["SMILES REPRESENTATION", "UNIT STRING", "BRM Max % Inhibition"],
 "data": [
  ["C[C@@]1(F)COCc2ncc(C(=O)NCc3cc4nc(-c5ccnc(N6CCC6)c5F)cnc4cn3)cc21", "%", 97],
  ["C[C@@]1(C#N)COCc2ccc(C(=O)NCc3cc4nc(N5CCCC5)ccc4cn3)cc21", "%", 95],
  ["CC1(c2nccc(-c3ccc4cnc(CNC(=O)c5ccc6c(c5)[C@](C)(C#N)COC6)cc4n3)n2)COC1", "%", 88],
  ["COCCn1c(C)cc2c(-c3ccc4cnc(CNC(=O)c5ccc6c(c5)[C@](C)(C#N)COC6)cc4n3)cccc21", "%", 102],
  ["C[C@@]1(C#N)COCc2ccc(C(=O)NCc3cc([C@H]4C[C@H](c5cccc(C6CC6)n5)C4)ccn3)cc21", "%", 99]
]}

[a] C[C@@]1(C#N)COCc2ccc(C(=O)NCc3cc4nc(-c5ccnc(N6CCC6)c5)ccc4cn3)cc21
[b] C[C@@]1(C#N)COCc2ccc(C(=O)NCc3cc(OCc4ccccn4)ccn3)cc21
Incoming: For the two items a and b , which reports the higher BRM Max % Inhibition value? # respond with the chosen item's label
Outgoing: a
(a: 99%, b: 64%)

* * *

- TESTED ON: BRG-1 (Homo sapiens, UniProt P51532)
- METHOD DESCRIPTION: ATPase catalytic activity assay (ADP-Glo), BRG-1
pIC50: −log10 of the molar value.
Examples of compounds with documented pIC50 follow.

Examples with their reported pIC50 follow.
{"columns": ["SMILES REPRESENTATION", "TESTED ON", "DATA VALUE"],
 "data": [
  ["Cc1cc2c(-c3ccc4cnc(CNC(=O)c5ccc6c(c5)[C@](C)(C#N)COC6)cc4n3)cccc2n1C", "BRG-1 (Homo sapiens, UniProt P51532)", "> 7.00"],
  ["C[C@@]1(C#N)COCc2ccc(C(=O)NCc3cc4nc(-c5cnn(C(F)F)c5)ccc4cn3)cc21", "BRG-1 (Homo sapiens, UniProt P51532)", "< 6.00"],
  ["C[C@@]1(C#N)COCc2ccc(C(=O)NCc3cc4nc(-c5cccc(N6CCC6)n5)ccc4cn3)cc21", "BRG-1 (Homo sapiens, UniProt P51532)", "> 7.00"]
]}

// next entry
The recorded pIC50 for `C[C@@]1(F)COCc2ccc(C(=O)NCc3cc4nc(-c5ccnc(N6CC[C@H]7COC[C@@H]7C6)n5)ccc4cn3)cc21` is 6.30 to 7.00

Attribution: patent US12441726B2
